# Test system: Puccinia recondita f. sp. tritici
# runDescription: Test H: wheat leaf rust, test suspension sprayed after inoculation of wheat seedlings, visual disease rating
# Type: in vivo
# experimentalConditions: 200 ppm; 100 = 100% disease control, 0 = no control relative to controls
Rule for this label: True means Test H disease control rating is less than 7%; False means Test H disease control rating is at least 7%.

Cc1ncn(-c2ccc(Cl)c(F)c2)c1-c1ccc(Br)cn1    False
COc1cc(F)c(-c2c(Cl)nc(Cl)n2-c2ccccc2)c(F)c1Cl    True
COc1ccc(-c2c(Cl)nc(Cl)n2-c2ccc(Cl)cc2Cl)cc1    True
COc1cc(F)c(-n2nnc(C)c2-c2ccc(Cl)cc2)c(F)c1    False

Data request: Lab note: Test H disease control rating threshold 7%. Does this compound come in strictly under it? COc1cc(F)c(-c2c(Cl)nc(C)n2-c2cccc(OC(F)(F)F)c2)c(F)c1
Data returned: False

Data request: Lab note: Test H disease control rating threshold 7%. Does this compound come in strictly under it? COc1cc(F)c(-c2c(Cl)nc(Cl)n2-c2ccc(Cl)nc2Cl)c(F)c1
Data returned: False

Data request: Lab note: Test H disease control rating threshold 7%. Does this compound come in strictly under it? CCOc1cc(F)c(-c2c(Cl)ncn2-c2ccc(C)cc2)c(F)c1
Data returned: False

Data request: Lab note: Test H disease control rating threshold 7%. Does this compound come in strictly under it? Cc1nc(Cl)c(-c2c(F)cc(F)cc2F)n1-c1ccc(OC(F)(F)F)cc1
Data returned: True

###

# System: Septoria tritici
# runDescription: Test G: wheat leaf blotch on wheat seedlings, sprayed the day before inoculation, visual disease rating
# Type: in vivo
# experimentalConditions: 200 ppm; 100 = 100% disease control, 0 = no control relative to controls
# Text: General protocol for preparing test suspensions for Tests A-J: The test compounds were first dissolved in acetone in an amount equal to 3% of the final volume and then suspended at the desired concentration (in ppm) in acetone and purified water (50/50 mix) containing 250 ppm of the surfactant Trem® 014 (polyhydric alcohol esters). […]
measuredParameter: Test G disease control rating
// unit must come after the numeric part

COc1cc(F)c(-c2c(Cl)nc(Cl)n2-c2ccc(OC(F)(F)F)cc2)c(F)c1 [compound 568]    94%
Fc1cccc(F)c1-c1c(Cl)nc(Br)n1Cc1ccccc1 [compound 95]    95%
COc1ccc(F)c(-c2c(Cl)nc(Cl)n2-c2ccc(Cl)cc2)c1Cl [compound 481]    95%
COc1ccc(F)c(-c2c(Cl)nc(Br)n2-c2cccc(C)c2)c1F [compound 316]    93%

Data request: I am curious: what Test G disease control rating value has been reported for Fc1cc(F)c(-c2c(Cl)nc(Cl)n2-c2ccc(OC(F)F)cc2)c(F)c1 [compound 598] ?
Data returned: 99%

Data request: I am curious: what Test G disease control rating value has been reported for CCOc1cc(F)c(-c2c(Cl)ncn2-c2ccc(F)cc2)c(F)c1 [compound 702] ?
Data returned: 99%

###

Test C disease control rating values by entry
# System: Botrytis cinerea
# runDescription: Test C: tomato Botrytis on tomato seedlings, sprayed the day before inoculation, visual disease rating
# Type: in vivo
# experimentalConditions: 40 ppm (marked *); 100 = 100% disease control, 0 = no control
Marks after values point to notes of the source that are not given here.

See these solved cases before continuing.
Cc1nc(Cl)n(-c2ccc(F)cc2)c1-c1c(F)ccc(F)c1F    100* %
Fc1cc(-c2c(CCl)nc(Cl)n2-c2ccc(Cl)c(F)c2)ccn1    62* %
Cn1c(-c2cnc(Cl)n2-c2ccc(Cl)cc2)nc(Cl)c1Br    3* %
Fc1cc(F)c(-n2c(Cl)nc(Br)c2-c2ccc(Cl)cc2)c(F)c1    96* %

Data request: Given the entry Cc1nc(Br)c(-c2c(F)cccc2F)n1-c1ccc2ccccc2c1 , what Test C disease control rating was observed with Botrytis cinerea?
Data returned: 99* %

Data request: Given the entry Cc1nc(C)n(-c2c(F)cc(F)cc2F)c1-c1ccc(Cl)cc1 , what Test C disease control rating was observed with Botrytis cinerea?
Data returned: 99* %

Data request: Given the entry Fc1cc(F)c(-n2c(Cl)nc(Cl)c2-c2ccc(Cl)cc2)c(F)c1 , what Test C disease control rating was observed with Botrytis cinerea?
Data returned: 90* %

Data request: Given the entry Fc1ccc(F)c(-c2c(Br)nc(Cl)n2-c2ccc(Cl)cc2)c1Cl , what Test C disease control rating was observed with Botrytis cinerea?
Data returned: 99* %

Data request: Given the entry COc1cc(F)c(-n2c(Cl)nc(Cl)c2-c2ccc(Cl)cc2)c(F)c1 , what Test C disease control rating was observed with Botrytis cinerea?
Data returned: 99* %

Data request: Given the entry Cc1nc(Br)c(-c2c(F)cccc2F)n1-c1ccc(Cl)c2ccccc12 , what Test C disease control rating was observed with Botrytis cinerea?
Data returned: 19* %

Data request: Given the entry Cc1nc(Cl)n(-c2ccc(Cl)cc2)c1-c1c(F)ccc(F)c1Cl , what Test C disease control rating was observed with Botrytis cinerea?
Data returned: 99* %
